assay: Volume of distribution at steady state in dog at 2.3 mg/kg, iv; assay type: ADME, organism-based, Canis lupus familiaris; parameters: dose 2.3 mg/kg, route intravenous; conditions: in vivo, read-out: Vdss
TEST READOUT: Vd
State the value with its unit after it.

-- ask Would you mind telling me what Vd value was observed for "O=CNCC(=O)N1C[C@H](NC(=O)c2ccccc2)C[C@H]1C(=O)O" ?
-- reply 0.4 L/kg

----------
experiment: Half life in dog at 7.8 mg/kg, po; format: ADME, organism-based, Canis lupus familiaris; design: dose 7.8 mg/kg, route oral; conditions: in vivo
TEST READOUT: half-life
State the value with its unit after it.

-- ask Would you mind telling me what half-life value was observed for "O=CNCC(=O)N1C[C@H](NC(=O)c2ccccc2)C[C@H]1C(=O)O" ?
-- reply 372 min

----------
experiment: Cmax in dog at 5 mg/kg, po; assay type: ADME, organism-based, Canis lupus familiaris; parameters: dose 5 mg/kg, route oral; conditions: in vivo
TEST READOUT: Cmax

-- ask Would you mind telling me what Cmax value was observed for NCC(=O)N1C[C@H](NC(=O)c2ccccc2)C[C@H]1C(=O)O [DANEGAPTIDE] ?
-- reply 799 ng/mL

----------
test: Volume of distribution at steady state in CD1 mouse at 0.77 mg/kg, iv; type: ADME, organism-based; parameters: dose 0.77 mg/kg, route intravenous; settings: in vivo, read-out: Vdss
TEST READOUT: Vd (L/kg)
Write the answer as a number in L/kg, unit excluded.

-- ask Would you mind telling me what Vd value was observed for NCC(=O)N1C[C@H](NC(=O)c2ccccc2)C[C@H]1C(=O)O [DANEGAPTIDE] ?
-- reply 2.7

----------
Recorded half-life for the following compounds
assay: Half life in CD1 mouse at 5 mg/kg, po; type: ADME, organism-based; set-up: dose 5 mg/kg, route oral; conditions: in vivo
Write the answer as a number in h, unit excluded.

Known results for compounds:
[
  {
    "MOL": "CC(C)NC(=O)[C@@H]1C[C@@H](NC(=O)c2ccccc2)CN1C(=O)CN",
    "TEST READOUT": "half-life",
    "ENDPOINT VALUE": 1.6
  },
  {
    "MOL": "NCC(=O)N1C[C@H](NC(=O)c2ccccc2)C[C@H]1C(=O)NC1CC1",
    "TEST READOUT": "half-life",
    "ENDPOINT VALUE": 1.2
  }
]

Now for a further compound.
-- ask Would you mind telling me what half-life value was observed for "CC(=O)NCC(=O)N1C[C@H](NC(=O)c2ccccc2)C[C@H]1C(=O)O" ?
-- reply 1.2

----------
assay: Cmax in dog at 7.8 mg/kg, po; format: ADME, organism-based, Canis lupus familiaris; design: dose 7.8 mg/kg, route oral; conditions: in vivo
TEST READOUT: Cmax

-- ask Would you mind telling me what Cmax value was observed for "O=CNCC(=O)N1C[C@H](NC(=O)c2ccccc2)C[C@H]1C(=O)O" ?
-- reply 737 ng/mL

----------
test: Oral bioavailability in dog at 5 mg/kg; assay type: ADME, organism-based, Canis lupus familiaris; settings: in vivo
TEST READOUT: bioavailability (%)
Write the answer as a number in %, unit excluded.

-- ask Would you mind telling me what bioavailability value was observed for NCC(=O)N1C[C@H](NC(=O)c2ccccc2)C[C@H]1C(=O)O [DANEGAPTIDE] ?
-- reply 14

----------
assay: Tmax in CD1 mouse at 5 mg/kg, po; conditions: in vivo
TEST READOUT: Tmax (min)
Write the answer as a number in min, unit excluded.

-- ask Would you mind telling me what Tmax value was observed for "O=CNCC(=O)N1C[C@H](NC(=O)c2ccccc2)C[C@H]1C(=O)O" ?
-- reply 15

----------
Recorded remaining at 3 h for the following molecules
test: Stability in rat plasma after 3 hrs; format: ADME, cell-free; conditions: read-out: Stability
Write the answer as a number in %, unit excluded.

Known results for molecules:
[
  {
    "MOL": "NCC(=O)N1C[C@H](NC(=O)c2ccccc2)C[C@H]1C(=O)NC1CCOCC1",
    "remaining at 3 h (%)": 81
  },
  {
    "MOL": "NCC(=O)N1C[C@H](NC(=O)c2ccccc2)C[C@H]1C(=O)NC1CCCC1",
    "remaining at 3 h (%)": 90
  }
]

-- ask Would you mind telling me what remaining at 3 h value was observed for "CC(C)NC(=O)[C@@H]1C[C@@H](NC(=O)c2ccccc2)CN1C(=O)CN" ?
-- reply 100

----------
assay: Clearance in dog at 2.3 mg/kg, iv; format: ADME, organism-based, Canis lupus familiaris; set-up: dose 2.3 mg/kg, route intravenous; settings: in vivo
TEST READOUT: clearance (mL/min/kg)
Write the answer as a number in mL/min/kg, unit excluded.

-- ask Would you mind telling me what clearance value was observed for "O=CNCC(=O)N1C[C@H](NC(=O)c2ccccc2)C[C@H]1C(=O)O" ?
-- reply 5

----------
Recorded AUC for the following molecules
assay: AUC in CD1 mouse at 5 mg/kg, po; assay type: ADME, organism-based; set-up: dose 5 mg/kg, route oral; conditions: plasma
Write the answer as a number in ng·h/mL, unit excluded.

Known results for molecules:
[
  {
    "MOL": "NCC(=O)N1C[C@H](NC(=O)c2ccccc2)C[C@H]1C(=O)NC1CC1",
    "ENDPOINT UNIT": "ng·h/mL",
    "AUC": 305
  },
  {
    "MOL": "CC(=O)NCC(=O)N1C[C@H](NC(=O)c2ccccc2)C[C@H]1C(=O)O",
    "ENDPOINT UNIT": "ng·h/mL",
    "AUC": 66
  }
]

Now for a further molecule.
-- ask Would you mind telling me what AUC value was observed for "CC(C)NC(=O)[C@@H]1C[C@@H](NC(=O)c2ccccc2)CN1C(=O)CN" ?
-- reply 90

----------
assay: Half life in dog at 5 mg/kg, po; type: ADME, organism-based, Canis lupus familiaris; set-up: dose 5 mg/kg, route oral; conditions: in vivo
TEST READOUT: half-life (h)
Write the answer as a number in h, unit excluded.

-- ask Would you mind telling me what half-life value was observed for NCC(=O)N1C[C@H](NC(=O)c2ccccc2)C[C@H]1C(=O)O [DANEGAPTIDE] ?
-- reply 4

----------
assay: Volume of distribution at steady state in CD1 mouse at 1.6 mg/kg, iv; assay type: ADME, organism-based; set-up: dose 1.6 mg/kg, route intravenous; conditions: in vivo, read-out: Vdss
TEST READOUT: Vd (L/kg)
Write the answer as a number in L/kg, unit excluded.

-- ask Would you mind telling me what Vd value was observed for "O=CNCC(=O)N1C[C@H](NC(=O)c2ccccc2)C[C@H]1C(=O)O" ?
-- reply 0.2
